Sourced from paper PMC4104309

Observed Kd values for IR α 91–103 peptide of the human insulin receptor (Homo sapiens, UniProt P06213) are listed in what follows.

# example entries with known answers
1. C[C@]12CC[C@@H]3c4ccc(O)cc4CC[C@H]3[C@@H]1CCC2=O [Estrone]	> 500 µM
2. C[C@]12CC[C@@H]3c4ccc(O)cc4CC[C@H]3[C@@H]1C[C@@H](O)[C@@H]2O [Estriol]	> 500 µM
3. C[C@]12CC[C@@H]3c4ccc(O)cc4CC[C@H]3[C@@H]1CC[C@@H]2O [17β-Estradiol (E2), 17β-Estradiol]	120 µM
4. C[C@]12CCC(=O)C=C1CC[C@@H]1[C@@H]2CC[C@]2(C)C(=O)CC[C@@H]12 [Andro-stenedione, 4-andro-stenedione]	> 500 µM
5. CC(=O)[C@H]1CC[C@H]2[C@@H]3CCC4=CC(=O)CC[C@]4(C)[C@H]3CC[C@]12C [Progesterone]	> 500 µM

Now look at this entry.
Missing value: Kd, IR α 91–103 peptide of the human insulin receptor (Homo sapiens, UniProt P06213), entry CC(C)CCC[C@@H](C)[C@H]1CC[C@H]2[C@@H]3CC=C4C[C@@H](O)CC[C@]4(C)[C@H]3CC[C@]12C [Cholesterol] . Fill in?
> 500 µM

###

Target: IR α 424–441 peptide of the human insulin receptor (Homo sapiens, UniProt P06213)
Construct: IR α 424–441; made in house; host or cells: chemical peptide synthesis (Michigan State University facility)
Assay: UV spectroscopy binding to insulin receptor peptide IR α 424–441
Description: Humulin R was obtained from Lilly.
pKd: −log10 of the molar value.
quantity: pKd

Given the entry `C[C@]12CCC(=O)C=C1CC[C@@H]1[C@@H]2CC[C@]2(C)C(=O)CC[C@@H]12` , report its measured pKd.
< 3.30

###

pKd: −log10 of the molar value.
Target or system IR α 453–464 peptide of the human insulin receptor (Homo sapiens): recorded pKd listed per item.

1. C[C@]12CC[C@@H]3c4ccc(O)cc4CC[C@H]3[C@@H]1CCC2=O	< 3.30
2. CC(=O)[C@H]1CC[C@H]2[C@@H]3CCC4=CC(=O)CC[C@]4(C)[C@H]3CC[C@]12C	< 3.30
3. CC(C)CCC[C@@H](C)[C@H]1CC[C@H]2[C@@H]3CC=C4C[C@@H](O)CC[C@]4(C)[C@H]3CC[C@]12C	< 3.30

Which pKd reading was recorded for the molecule `C[C@]12CC[C@@H]3c4ccc(O)cc4CC[C@H]3[C@@H]1C[C@@H](O)[C@@H]2O` ?
3.41

Given C[C@]12CC[C@@H]3c4ccc(O)cc4CC[C@H]3[C@@H]1CC[C@@H]2O [17β-Estradiol (E2), 17β-Estradiol] , state its recorded pKd.
< 3.30

Give its pKd value. Item: `C[C@]12CCC(=O)C=C1CC[C@@H]1[C@@H]2CC[C@]2(C)C(=O)CC[C@@H]12`
< 3.30

###

Target: oxidized insulin A chain (Insulin alpha chain) (Bos taurus)
Sequence (P01317 85-105): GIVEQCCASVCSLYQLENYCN
quantity: pKd
# pKd is unitless: minus log10 of the molar concentration; print number only

Returns the measured pKd for the input compound. Input: C[C@]12CC[C@@H]3c4ccc(O)cc4CC[C@H]3[C@@H]1CC[C@@H]2O [17β-Estradiol (E2), 17β-Estradiol]
3.66
